# Tested on: PAF-induced platelet aggregation (platelet-rich plasma)
# PROTOCOL SUMMARY: PAF antagonism, in vitro platelet aggregation assay
# Assay type: cell-based
# APPLIED CONDITIONS: dose giving 50 % PAF antagonism, human PRP, PAF 1-5×10^-8 M
MEASURE NAME: pIC50
Formally, pIC50 is defined as -log10 of the concentration c, with c in mol/L.

Example entries begin here.
{"COMPOUND": "CC(=O)N1CCC(=C2c3ccc(Cl)cc3CC(O)c3cccnc32)CC1 (centres unmarked)", "pIC50": 5.30}
{"COMPOUND": "CC(=O)N1CCC(C2c3ccccc3CCc3cccnc32)CC1 (centres unmarked) [R^3 = H, R^4 = H, R = CH3, Z = O, X = CH]", "pIC50": 5.30}
{"COMPOUND": "COCC(=O)N1CCC(=C2c3ccc(Cl)cc3CCc3cccnc32)CC1 [R = CH2 OCH3, R^3 = Cl, R^4 = H, Z = O]", "pIC50": 5.22}

Consider the compound shown here: CC(=O)N1CCC(=C2c3ccccc3CCc3ccc[n+]([O-])c32)CC1 What is its recorded pIC50?
5.82

----------
# Tested on: histamine-induced lethality
# PROTOCOL SUMMARY: Antihistamine activity: prevention of histamine-induced lethality in guinea pigs
# Type: in vivo
# APPLIED CONDITIONS: Cavia porcellus, 0.5 h; guinea pig, oral dose 5 mg/kg PO, 1 hour before histamine 1.1 mg/kg i.v.; read-out: Antihistaminic Activity, % Survival
MEASURE NAME: responders at 5 mg/kg (%)
Report as a plain number; the unit % is understood.

Here is how some molecules turned out for responders at 5 mg/kg.
{"COMPOUND": "CC(=O)N1CCC(=C2c3cc(F)ccc3CCc3cccnc32)CC1", "MEASURED ON": "histamine-induced lethality", "ASSAY VALUE": 0}
{"COMPOUND": "S=C(c1ccccc1)N1CCC(=C2c3ccc(Cl)cc3CCc3cccnc32)CC1", "MEASURED ON": "histamine-induced lethality", "ASSAY VALUE": 60}

In the following, a different molecule is considered.
Value lookup for responders at 5 mg/kg; key = O=C(c1ccccc1)N1CCC(=C2c3ccc(Cl)cc3CCc3cccnc32)CC1
100

----------
# Test system: histamine-induced lethality
# PROTOCOL SUMMARY: Antihistamine activity: prevention of histamine-induced lethality in guinea pigs
# Type: in vivo
# APPLIED CONDITIONS: Cavia porcellus, 0.5 h; guinea pig, oral dose 5 mg/kg PO, 1 hour before histamine 1.1 mg/kg i.v.; read-out: Antihistaminic Activity, % Survival
Reported responders at 5 mg/kg values for the following compounds.
Report as a plain number; the unit % is understood.

{"COMPOUND": "CCC(=O)N1CCC(=C2c3ccc(Cl)cc3CCc3cccnc32)CC1", "ASSAY VALUE": 80}
{"COMPOUND": "CCSC(=O)N1CCC(=C2c3ccc(Cl)cc3CCc3cccnc32)CC1", "ASSAY VALUE": 80}
{"COMPOUND": "COCC(=O)N1CCC(=C2c3ccc(Cl)cc3CCc3cccnc32)CC1", "ASSAY VALUE": 80}
{"COMPOUND": "COCC(=O)N1CCC(=C2c3ccc(F)cc3CCc3cccnc32)CC1", "ASSAY VALUE": 100}
{"COMPOUND": "CC(=O)N1CCC(=C2c3ccc(F)cc3CCc3cccnc32)CC1", "ASSAY VALUE": 20}
{"COMPOUND": "CCCC(=O)N1CCC(=C2c3ccc(Cl)cc3CCc3cccnc32)CC1", "ASSAY VALUE": 100}

We now examine a further compound.
So what does the record say about responders at 5 mg/kg for CC(=O)N1CCC(=C2c3ccc(Cl)cc3CCc3cccnc32)CC1 ?
100

----------
# PROTOCOL SUMMARY: CNS activity: antagonism of electro-convulsive shock (ECS)
# APPLIED CONDITIONS: mouse, in vivo; mice, oral, one hour before ECS; read-out: ECS test ED50
MEASURE NAME: ED50

Recorded results for 2 molecules are shown here.
{"MOLECULE": "COCC(=O)N1CCC(=C2c3ccc(Cl)cc3CCc3cccnc32)CC1", "ED50": "> 320 mg/kg"}
{"MOLECULE": "CCSC(=O)N1CCC(=C2c3ccc(Cl)cc3CCc3cccnc32)CC1", "ED50": "> 320 mg/kg"}

Returns the measured ED50 for the input molecule. Input: CC(=O)N1CCC(=C2c3ccc(Cl)cc3CCc3cccnc32)CC1
> 320 mg/kg

Also, CCC(=O)N1CCC(=C2c3ccc(Cl)cc3CCc3cccnc32)CC1 please.
> 320 mg/kg

Next molecule: COCC(=O)N1CCC(=C2c3ccc(F)cc3CCc3cccnc32)CC1
< 320 mg/kg

----------
Recorded ED50 by entry
# PROTOCOL SUMMARY: CNS activity: antagonism of acetic acid writhing
# APPLIED CONDITIONS: mouse, in vivo; mice, oral, 15 minutes before acetic acid i.p.

Answered cases to consult:
{"COMPOUND": "CC(=O)N1CCC(=C2c3ccc(Cl)cc3CCc3cccnc32)CC1", "ASSAY VALUE": "> 160 mg/kg"}
{"COMPOUND": "COCC(=O)N1CCC(=C2c3ccc(F)cc3CCc3cccnc32)CC1", "ASSAY VALUE": "< 320 mg/kg"}
{"COMPOUND": "CCC(=O)N1CCC(=C2c3ccc(Cl)cc3CCc3cccnc32)CC1", "ASSAY VALUE": "> 320 mg/kg"}
{"COMPOUND": "COCC(=O)N1CCC(=C2c3ccc(Cl)cc3CCc3cccnc32)CC1", "ASSAY VALUE": "> 320 mg/kg"}

What does the data say about its ED50? Entry: CCCC(=O)N1CCC(=C2c3ccc(Cl)cc3CCc3cccnc32)CC1
> 320 mg/kg

Proceed to CCSC(=O)N1CCC(=C2c3ccc(Cl)cc3CCc3cccnc32)CC1
> 320 mg/kg

Also S=C(c1ccccc1)N1CCC(=C2c3ccc(Cl)cc3CCc3cccnc32)CC1 , if possible.
> 320 mg/kg

What would you report for CN1CCC(=C2c3ccccc3CCc3cccnc32)CC1 [R^3 = H, R^4 = H, A = H, CZR = CH3, reference compound] ?
8.9 mg/kg

----------
# PROTOCOL SUMMARY: CNS activity: antagonism of physostigmine lethality
# APPLIED CONDITIONS: mouse, in vivo; mice, oral, 30 minutes prior to physostigmine 1.0 mg/kg s.c.
MEASURE NAME: ED50 (mg/kg)
The reply should be a number in mg/kg, with the unit left off.

Can you look up the measured ED50 of CN1CCC(=C2c3ccccc3CCc3cccnc32)CC1 [R^3 = H, R^4 = H, A = H, CZR = CH3, reference compound] for me?
6.1

----------
pIC50: recorded values
# Tested on: PAF-induced platelet aggregation (platelet-rich plasma)
# PROTOCOL SUMMARY: PAF antagonism, in vitro platelet aggregation assay
# Type: cell-based
# APPLIED CONDITIONS: dose giving 50 % PAF antagonism, human PRP, PAF 1-5×10^-8 M
# reply with the number alone; pIC50 is -log10 of concentration in mol/L

{"COMPOUND": "CC(=O)N1CCC(=C2c3ccc(Cl)cc3CC(=O)c3cccnc32)CC1", "ASSAY VALUE": 5.92}

Form field: reported pIC50 of CC(=O)N1CCC(=C2c3ccc(Br)cc3CCc3cccnc32)CC1
5.92

Okay, and CC(=O)N1CCC(=C2c3ccc(Cl)cc3CCc3cccnc32)CC1 ?
6.15

// same read-out, input: CC(=O)N1CCC(=C2c3ccc(Cl)cc3C=Cc3cccnc32)CC1
6.30

Continue with COCC(=O)N1CCN(C2c3ccc(Cl)cc3CCc3cccnc32)CC1 (stereo not shown)
5.30

Similarly, CC(=O)N1CCC(=C2c3ccc(F)cc3CCc3cccnc32)CC1 ?
6.15

Input O=CN1CCN(C2c3ccc(Cl)cc3CCc3cccnc32)CC1 (stereo not shown)
5.30

Same thing, different compound: CC(=O)N1CCC(=C2c3cc(F)ccc3CCc3cccnc32)CC1
6.05

Can you check CC(=O)N1CCC(=C2c3ccc(Cl)cc3CC(C)c3cccnc32)CC1 (stereo not shown) next?
6.00

----------
# PROTOCOL SUMMARY: CNS activity: antagonism of electro-convulsive shock (ECS)
# APPLIED CONDITIONS: mouse, in vivo; mice, oral, one hour before ECS; read-out: ECS test ED50
Quick reference: ED50 of the listed items.

Some solved entries appear below for comparison.
{"COMPOUND": "CN1CCC(=C2c3ccccc3CCc3cccnc32)CC1 [R^3 = H, R^4 = H, A = H, CZR = CH3, reference compound]", "ASSAY VALUE": "> 80 mg/kg"}
{"COMPOUND": "CCCC(=O)N1CCC(=C2c3ccc(Cl)cc3CCc3cccnc32)CC1", "ASSAY VALUE": "> 320 mg/kg"}

Consider the additional compound presented here.
Reported ED50 for S=C(c1ccccc1)N1CCC(=C2c3ccc(Cl)cc3CCc3cccnc32)CC1 : what is it?
> 320 mg/kg

These entries and their values trace back to patent US5438062A.
